# measured.on: T1, SARS-CoV-2 RBD-mFc (SARS-CoV-2, UniProt P0DTC2 319-541)
# T1 construct: range 319-541
# test: Octet QKe BLI, 1:1 global fit
Please respond with reported log10 of koff for every item in the list.
Form field - Quantity: koff; Unit: s⁻¹; Scale: log10

Take a look at these entries with their results.
- binder: "SA3827 (antibody, V domains shown) VH: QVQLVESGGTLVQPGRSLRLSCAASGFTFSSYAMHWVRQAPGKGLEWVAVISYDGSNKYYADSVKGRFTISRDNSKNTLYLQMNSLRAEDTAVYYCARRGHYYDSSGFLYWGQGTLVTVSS VL: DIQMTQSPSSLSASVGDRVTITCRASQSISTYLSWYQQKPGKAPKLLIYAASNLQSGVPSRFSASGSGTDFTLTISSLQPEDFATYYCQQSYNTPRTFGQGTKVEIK"
  log10 of koff: -3.76
- binder: "SA4056 (antibody, V domains shown) VH: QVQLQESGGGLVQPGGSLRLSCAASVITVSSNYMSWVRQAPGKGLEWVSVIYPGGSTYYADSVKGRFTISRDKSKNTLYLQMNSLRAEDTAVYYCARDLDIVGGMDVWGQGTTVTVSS VL: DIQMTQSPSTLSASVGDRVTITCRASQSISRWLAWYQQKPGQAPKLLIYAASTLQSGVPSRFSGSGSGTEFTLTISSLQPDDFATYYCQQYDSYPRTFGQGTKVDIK"
  log10 of koff: -4.36
- binder: "SA3856 (antibody, V domains shown) VH: QMQLVESGGGLIQPGGSLRLSCAASGFTVTSAYMSWVRQAPGKGLEWVSIIYGGGSTYYADSVKGRFTISRDNSKNTLYLQMNSLRAEDTAVYYCTGPYPGRYDYWGRGTLVTVSS VL: DIQMTQSPSSLSASVGDRVIITCRASQDIRTSLAWFQQRLGEAPRSLIYDASSLQNGVPSKFRGSGSGTDFTLTISSLQPEDFATYYCQQYKTVPLTFGGGTKVEIK"
  log10 of koff: -4.37
- binder: "SA3830 (antibody, V domains shown) VH: QVQLVESGGGLIQPGRSLSLSCAASGFNFDEYSMHWVRQRPGKGLEWVSGIKYNSNTILYADSVKGRFTVSRDNSKNSLYLQMNSLRAEDTAVYYCARDAMRGGDFDHWGQGTLITVSS VL: DIQMTQSPSYLSASAGDRVTITCRASQSISDWLAWYQHKPGKAPKLLIYKASRLENGVPSRFRGSGSATDFTLTISSLQAEDVAVYYCQQYYSTTWTFGQGTKVDIK"
  log10 of koff: -3.15
- binder: "SA4050 (antibody, V domains shown) VH: QVQLVESGAEVKKPGASVKVSCKASGYTFTGYFIHWVRQAPGQGLEWMGWINPNSGGTNYAQKFQGRVTMTRDTSISTAYMELSRLRSDDTAVYYCARVPHLSGYYYEGVLGYFDYWGQGTLVTVSS VL: QSALTQPASVSGSPGQSITISCTGTSIDIGSYNFVSWYQRHPGKAPRLLIYDVSDRPSGVSNRFSGSKSANTASLTISGLQAEDEADYYCSSYTSSSLWVFGGGTKLTVL"
  log10 of koff: -4.33

Each binder below has a recorded value; state its log10 of koff.
1. SA3779 (antibody, V domains shown) VH: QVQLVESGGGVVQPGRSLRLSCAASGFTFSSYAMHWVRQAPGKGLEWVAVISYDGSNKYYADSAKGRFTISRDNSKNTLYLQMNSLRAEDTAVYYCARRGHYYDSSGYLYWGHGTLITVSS VL: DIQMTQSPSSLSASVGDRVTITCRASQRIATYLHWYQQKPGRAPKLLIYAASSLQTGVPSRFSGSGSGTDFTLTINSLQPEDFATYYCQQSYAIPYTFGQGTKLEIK
2. SA4057 (antibody, V domains shown) VH: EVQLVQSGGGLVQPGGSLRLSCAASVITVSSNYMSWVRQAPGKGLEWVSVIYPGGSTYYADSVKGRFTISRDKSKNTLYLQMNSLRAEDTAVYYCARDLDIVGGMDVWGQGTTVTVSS VL: QLVLTQPPSVSGAPGQRVTISCTGSSSNIGAPHDVHWYQQLPGTAPRLLIYANNNRPSGVPDRFSGSKSGTSASLAITGLQDEDEADYYCQSYDSSLRAYVFGTGTKVTVL
3. SA3902 (antibody, V domains shown) VH: QVQLVQSGAEVRQPGASVKVSCKTSGYAFSYYHIHWVRQAPGQGLEWMGLINPGSGGTNYAQKFQGRVTLTRDTSTSTVYMDLTGLRSEDTAVYYCAGSEQPHYYANGAYRVWGQGTLVTVSS VL: DIQMTQSPSTLSASVGDRVTITCRASQSISSYLNWYQQKPGKAPKLLIYEVSTLESGVPSRFSGSRSGTEFTLTISSLQPDDFATYYCQQYDTFGGGTKVEIK
4. SA4040 (antibody, V domains shown) VH: EVQLVQSGAEVKKPGASVKVSCKASGYTFTGYYMHWARQAPGQGLEWMGWINPNSGGTNYAQKFQGRVTMTRDTSITTAYMELSRLTSDDTAVYYCARDQAFSMVRGVTDYWGQGTLVTVSS VL: QSALTQPPSASGSPGQSVIISCTGSSSDVGGYNYVAWYQQYPGAAPKLIISEVTKRPSGVPDRFSGSKSGNTASLTISGLQAEDEANYYCSSYAGDNTWIFGGGTKLTVL

output:
1: -3.65; 2: -5.30; 3: -4.09; 4: -3.74

Each binder below has a recorded value; state its log10 of koff.
1. SA4053 (antibody, V domains shown) VH: EVQLVQSGGGLVQPGGSLRLSCADSGFTFSSYWMSWVRQVPGKGLEWVANIKQDGSEKYYVDSVKGRFTISRDNAKNSLYLQMNSLRAEDTAVYYCARDVGRGYCSSTSCYRFGGREDFFDYWGQGTLVTVSS VL: QLVLTQPPSVSAAPGQRVTISCSGSFSNVGNNFVSWYRHLPGTAPELLIYDNNQRPSGIPDRFSASKSGTSATLAITGLHTGDEADYYCGTWDTSLSGVVFGGGTKLTVL
2. SA3755 (antibody, V domains shown) VH: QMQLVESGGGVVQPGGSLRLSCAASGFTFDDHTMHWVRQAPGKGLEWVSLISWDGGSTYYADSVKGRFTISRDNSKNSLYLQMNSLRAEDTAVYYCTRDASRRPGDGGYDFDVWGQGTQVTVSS VL: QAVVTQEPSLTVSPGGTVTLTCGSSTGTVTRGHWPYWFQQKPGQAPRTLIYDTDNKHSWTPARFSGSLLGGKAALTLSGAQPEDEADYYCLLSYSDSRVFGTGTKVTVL

output:
1. -3.66
2. -3.37
